Measured kon by item
# STUDY_SYSTEM: T1, histidine-tagged human uPAR (Sino#10925-H08H) (human, UniProt Q03405 23-303)
# T1 construct: also called uPAR-His
# MEASUREMENT_PROTOCOL: BLI (Octet), antibody on anti-human Fc sensor, uPAR from 50 nM;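 note: antibodies captured at 10 µg/mL on anti-human Fc biosensors, with uPAR as analyte in a twofold dilution series from 50 nM downward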
Give the quantity in M⁻¹ s⁻¹, number only.

Worked examples follow.
| BINDER | kon [M⁻¹ s⁻¹] |
| --- | --- |
| M1-Chimeric (antibody, V domains shown) VH: EVQLQQSGAELVRPGASVKLSCTASGFNIKDEYINWVKQRPEQGLEWIGWIDPENGDTEYASKFQGKATITADTSSNTAYLQLSSLTSEDTAVYYCTGGNYVGWFPYWGQGTLVTVSA VL: QIVLTQSPAIMSASPGEKVTMTCSASSSVSYMHWYQQKSGTSPKRWLYDTSKLASGVPARFSGSGSGTSYSLTISSMEAEDAATYYCQQWSSNPPYTFGGGTKLEIK | 629000 |
| M1-H3/L1 (antibody, V domains shown, also called humanized M1) VH: EVQLQQSGAEVKKPGATVKLSCTASGFNIKDEYINWVKQRPGQGLEWIGWIDPENGDTEYASKFQGRATITADTSTDTAYLELSSLRSEDTAVYYCTGGNYVGWFPYWGQGTLVTVSS VL: EIVLTQSPATLSLSPGERATLSCSASSSVSYMHWYQQKPGTSPRRWIYDTSKLASGVPARFSGSGSGTDFTLTISSLEPEDFAVYYCQQWSSNPPYTFGQGTKLEIKT | 677000 |

We now examine a further binder.
Noted for M1-H1/L4 (antibody, V domains shown, also called humanized M1) VH: EVQLVQSGAEVKKPGATVKISCTASGFNIKDEYINWVKQRPGKGLEWIGWIDPENGDTEYASKFQGRVTITADTSTDTAYLELSSLRSEDTAVYYCTGGNYVGWFPYWGQGTLVTVSS VL: QIVLTQSPATLSASPGERVTMSCSASSSVSYMHWYQQKPGTSPRRWLYDTSKLASGVPARFSGSGSGTDYTLTISSLEPEDFATYYCQQWSSNPPYTFGQGTKLEIKT : its kon reads 665000
